# tested-system: C-Raf FL (full length CRAF with Y340E and Y341E activating mutations, co-expressed with h14-3-3 zeta) (Homo sapiens (Human), UniProt P04049, Y340E/Y341E)
# Sequence (P04049 whole entry Y340E/Y341E): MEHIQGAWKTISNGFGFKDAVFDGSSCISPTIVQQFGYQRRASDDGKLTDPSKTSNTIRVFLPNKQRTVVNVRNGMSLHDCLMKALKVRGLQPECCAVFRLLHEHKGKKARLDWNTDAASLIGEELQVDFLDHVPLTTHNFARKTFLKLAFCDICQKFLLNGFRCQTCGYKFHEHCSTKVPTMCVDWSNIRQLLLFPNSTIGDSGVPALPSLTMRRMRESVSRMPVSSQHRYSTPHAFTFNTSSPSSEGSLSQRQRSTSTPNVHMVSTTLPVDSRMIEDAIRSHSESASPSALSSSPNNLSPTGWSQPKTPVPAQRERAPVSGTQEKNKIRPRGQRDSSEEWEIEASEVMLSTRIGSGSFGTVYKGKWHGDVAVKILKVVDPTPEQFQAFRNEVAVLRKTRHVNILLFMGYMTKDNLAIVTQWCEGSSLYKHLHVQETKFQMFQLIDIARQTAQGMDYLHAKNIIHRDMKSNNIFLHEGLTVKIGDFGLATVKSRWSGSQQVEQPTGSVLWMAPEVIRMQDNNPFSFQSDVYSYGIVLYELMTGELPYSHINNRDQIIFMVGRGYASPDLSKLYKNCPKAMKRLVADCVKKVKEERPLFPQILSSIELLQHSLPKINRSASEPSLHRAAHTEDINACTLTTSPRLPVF
# Sequence (P63104 whole entry partner): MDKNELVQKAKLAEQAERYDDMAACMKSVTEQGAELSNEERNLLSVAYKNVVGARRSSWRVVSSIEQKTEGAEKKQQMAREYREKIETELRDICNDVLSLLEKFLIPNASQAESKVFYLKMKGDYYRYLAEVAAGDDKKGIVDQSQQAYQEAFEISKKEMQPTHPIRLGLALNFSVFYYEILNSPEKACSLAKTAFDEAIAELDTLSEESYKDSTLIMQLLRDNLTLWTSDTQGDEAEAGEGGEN
# assay-method-text: In vitro Raf activity determination, AlphaScreen p-MEK readout, c-Raf (C-Raf FL)
# assay-context: c-Raf approximately 4 nM, ATP 1 μM, pre-incubation 60 minutes, reaction 1 hour

{"columns": ["compound", "IC50, nM"],
 "data": [
  ["Cc1ccc(NC(=O)c2cnnc(C(F)(F)F)c2)cc1-c1cc2c(cc1F)C[C@@](F)(CO)[C@@H]1COCCN21 [Example 482]", 0.3],
  ["CCN1C(=O)N2COCCC2(C)c2cc(-c3cc(NC(=O)c4ccnc(C(F)(F)F)c4)ccc3C)ccc21 (stereo not drawn) [Example 242]", 0.3],
  ["CCN1C(=O)C[C@H]2COCCN2c2cc(-c3cc(NC(=O)c4cnnc(C(F)(F)F)c4)ccc3C)cnc21 [Example 326]", 0.5],
  ["Cc1ccc(NC(=O)c2ccnc(C(C)(F)F)c2)cc1-c1cnc2c(c1)[C@@H]1CCOC[C@H]1C(=O)N2CC(F)F [Example 265]", 0.1],
  ["Cc1ncc(NC(=O)c2cccc(C(F)(F)F)c2)cc1-c1ccc2c(c1)N1CCOC[C@H]1[C@](CO)(CF)C2 [Example 409]", 0.4],
  ["Cc1ncc(NC(=O)c2ccnc(C(C)(F)F)c2)cc1-c1ccc2c(c1)N1CCOCC1C(F)(CO)C2 (racemic) [Example 79]", 0.038],
  ["Cc1ccc(NC(=O)c2ccnc(C(C)(F)F)c2)cc1-c1ccc2c(c1)N1CCOC[C@@H]1C1(COC1)C2 [Example 58]", 0.01],
  ["Cc1ccc(NC(=O)c2ccnc(C(F)(F)F)c2)cc1-c1ccc2c(c1)N1CCOC[C@@H]1C[C@@H]2O [Example 5]", 0.036],
  ["Cc1ccc(NC(=O)c2ccnc(C(C)(F)F)c2)cc1-c1cnc2c(c1)N1CCOC[C@H]1[C@H](F)[C@H]2O (relative stereo) [Example 140]", 0.0085],
  ["CO[C@@H]1C[C@@H]2COCCN2c2cc(-c3cc(NC(=O)c4ccnc(C(F)(F)F)c4)ccc3C)ccc21 (racemic) [Example 30]", 0.18],
  ["CNC(=O)C1Cc2ccc(-c3cc(NC(=O)c4cccc(C(F)(F)F)c4)cnc3C)cc2N2CCOCC12 (racemic) [Example 68]", 0.34],
  ["Cc1ccc(NC(=O)c2ccnc(C(C)(F)F)c2)cc1-c1ccc2c(c1)N1CCOC[C@]1(C)C[C@H]2O (racemic) [Example 27]", 0.017],
  ["Cc1ccc(NC(=O)c2ccnc(C(C)(F)F)c2)cc1-c1cnc2c(c1)N1CCOCC1C1(COC1)C2 (racemic) [Example 152]", 0.011],
  ["CCN1C(=O)[C@@H]2[C@H]3COC[C@H]3[C@@H]2c2cc(-c3cc(NC(=O)c4ccnc(C(C)(F)F)c4)ccc3C)cnc21 [Example 269]", 0.3],
  ["Cc1ccc(NC(=O)c2ccnc(C(F)(F)F)c2F)cc1-c1cnc2c(c1)N1CCOC[C@H]1CC(=O)N2CC(C)(C)O [Example 290]", 1],
  ["Cc1ncc(NC(=O)c2cccc(C(F)(F)F)c2)cc1-c1cnc2c(c1)N1CCOC[C@@H]1C[C@@H]2O [Example 106]", 0.012],
  ["Cc1ncc(NC(=O)c2cccc(C(F)(F)F)c2)cc1-c1ccc2c(c1)N1CCOCC1C(CO)C2 (racemic) [Example 61]", 0.033],
  ["Cc1ccc(NC(=O)c2cncc(C(F)(F)F)c2)cc1-c1cnc2c(c1)[C@@H]1CCOC[C@H]1C(=O)N2CCO [Example 306]", 0.1],
  ["Cc1ccc(NC(=O)c2cnnc(C(F)(F)F)c2)cc1-c1cc(F)c2c(c1)N1CCOC[C@H]1[C@@](F)(CO)C2 [Example 433]", 0.1],
  ["Cc1ncc(NC(=O)c2cccc(C(F)(F)F)c2)cc1-c1ccc2c(c1)N1CCOC[C@@H]1[C@@](CO)(CF)C2 [Example 406]", 0.4],
  ["Cc1ncc(NC(=O)c2cccc(C(C)(F)F)c2)cc1-c1ccc2c(c1)N1CCOC[C@H]1[C@](F)(CO)C2 [Example 367]", 1],
  ["Cc1ncc(NC(=O)c2cccc(C(F)(F)F)c2)cc1-c1cnc2c(c1)N1CCOCCC1CC(=O)N2CCO (stereo not drawn) [Example 319]", 2.2],
  ["Cc1ccc(NC(=O)c2ccnc(C(F)(F)F)c2)cc1-c1cnc2c(c1)N1CCOCC1CC2=O (racemic) [Example 110]", 0.002],
  ["Cc1ccc(NC(=O)c2ccnc(C(C)(C)C#N)c2)cc1-c1cnc2c(c1)N1CCOCC1C1(COC1)C2 (racemic) [Example 157]", 0.16],
  ["Cc1ccc(NC(=O)c2ccnc(C(C)(F)F)c2)cc1-c1cnc2c(c1)N1CCOCC1C(CO)(CO)C2 (racemic) [Example 158]", 0.01],
  ["Cc1ccc(NC(=O)c2ccnc(C(F)(F)F)c2)cc1-c1ccc2c(c1)N1CCOCC1C1(COC1)C2 (racemic) [Example 54]", 0.013],
  ["Cc1ccc(NC(=O)c2ccnc(C(C)(F)F)c2)cc1-c1cnc2c(c1)[C@@]1(C)CCOCC[C@@H]1C(=O)N2CCO (relative stereo) [Example 351]", 1.1]
]}
